Tested on: transformed human cell lines (A549, HT29, Saos-2)
EXPERIMENT: 72-h MTT cytotoxicity assay, average over cell lines
Assay type: cell-based
CONDITION_INFO: average of A549, HT29, Saos-2, read-out: 72-h MTT IC50 Average
ASSAY_READOUT: IC50 (nM)

>>> df
                               entry_smiles  number
0     Cc1nc(C)c(-c2ccnc(Nc3ccc(Cl)nc3)n2)s1    5700
1   CCNc1nc(C)c(-c2ccnc(Nc3ccc(OC)nc3)n2)s1    1200
2  Cc1nc(C)c(-c2ccnc(Nc3ccc(N4CCCC4)nc3)n2)s1     300
3    CNc1nc(C)c(-c2ccnc(Nc3ccc(Cl)nc3)n2)s1    4600
4   Cc1nc(C)c(-c2ccnc(Nc3ccc[n+](C)c3)n2)s1   48700
5   COc1ccc(Nc2nccc(-c3sc(N(C)C)nc3C)n2)cn1    2000
6    CNc1nc(C)c(-c2ccnc(Nc3ccc(OC)nc3)n2)s1    1700

###

Assay system GSK3β (Homo sapiens); read-out recorded as Ki.
ASSAY_READOUT: Ki (nM)

In [3]: df
Out[3]:
                               entry_smiles  assay_readout  number
0  CNc1nc(C)c(-c2ccnc(Nc3ccc(N4CCN(C)CC4)nc3)n2)s1             Ki    2900
1     Cc1nc(C)c(-c2ccnc(Nc3ccc(Cl)nc3)n2)s1             Ki     110
2   Cc1c(-c2ccnc(Nc3ccc(Cl)nc3)n2)sc(=O)n1C             Ki      11
3  CCn1c(C)c(-c2ccnc(Nc3ccc(OC)nc3)n2)sc1=O             Ki      13
4  COCCNc1nc(C)c(-c2ccnc(Nc3ccc(OC)nc3)n2)s1             Ki     100

###

SYSTEM_TESTED: CDK2/cyclin A (Homo sapiens)
EXPERIMENT: Kinase assay, incorporation of radioactive phosphate from ATP
CONDITION_INFO: 100 μM ATP, 30° C.; read-out: Kinase inhibition Ki CDK2/cyclin A
log10 Ki values, listed per item
ASSAY_READOUT: log10 Ki (log10 of the value in nM)

>>> df
                                entry_smiles  assay_readout  number
 0   CCNc1nc(C)c(-c2ccnc(Nc3ccc(OC)nc3)n2)s1       log10 Ki    1.48
 1    CNc1nc(C)c(-c2ccnc(Nc3ccc(OC)nc3)n2)s1       log10 Ki    2.43
 2     Cc1nc(C)c(-c2ccnc(Nc3ccc(Cl)nc3)n2)s1       log10 Ki    3.23
 3  Cc1nc(C)c(-c2ccnc(Nc3ccc(N4CCCC4)nc3)n2)s1       log10 Ki    3.15
 4       Cc1nc(N)sc1-c1ccnc(Nc2ccc(Cl)nc2)n1       log10 Ki    2.93
 5  COCCNc1nc(C)c(-c2ccnc(Nc3ccc(OC)nc3)n2)s1       log10 Ki    2.98
 6       COc1ccc(Nc2nccc(-c3sc(N)nc3C)n2)cn1       log10 Ki    2.98
 7  CCn1c(C)c(-c2ccnc(Nc3ccc(OC)nc3)n2)sc1=O       log10 Ki    2.57
 8   COc1ccc(Nc2nccc(-c3sc(N(C)C)nc3C)n2)cn1       log10 Ki    2.52
 9  CNc1nc(C)c(-c2ccnc(Nc3ccc(N4CCN(C)CC4)nc3)n2)s1       log10 Ki    3.18
10       COc1ccc(Nc2nccc(-c3sc(C)nc3C)n2)cn1       log10 Ki    3.15
11    CNc1nc(C)c(-c2ccnc(Nc3ccc(Cl)nc3)n2)s1       log10 Ki    2.68

###

SYSTEM_TESTED: CDK2/cyclin E (Homo sapiens)
EXPERIMENT: Kinase assay, incorporation of radioactive phosphate from ATP
CONDITION_INFO: 100 μM ATP, 30° C.; read-out: Kinase inhibition Ki CDK2/cyclin E
pKi: −log10 of the molar value.
ASSAY_READOUT: pKi

In [3]: df
Out[3]:
                                entry_smiles                 system_tested  number
 0   Cc1nc(C)c(-c2ccnc(Nc3ccc[n+](C)c3)n2)s1  CDK2/cyclin E (Homo sapiens)    5.82
 1     Cc1nc(C)c(-c2ccnc(Nc3ccc(Cl)nc3)n2)s1  CDK2/cyclin E (Homo sapiens)    6.46
 2    CNc1nc(C)c(-c2ccnc(Nc3ccc(Cl)nc3)n2)s1  CDK2/cyclin E (Homo sapiens)    7.10
 3       COc1ccc(Nc2nccc(-c3sc(C)nc3C)n2)cn1  CDK2/cyclin E (Homo sapiens)    6.89
 4       Cc1nc(N)sc1-c1ccnc(Nc2ccc(Cl)nc2)n1  CDK2/cyclin E (Homo sapiens)    7.30
 5    CNc1nc(C)c(-c2ccnc(Nc3ccc(OC)nc3)n2)s1  CDK2/cyclin E (Homo sapiens)    7.52
 6   Cc1c(-c2ccnc(Nc3ccc(Cl)nc3)n2)sc(=O)n1C  CDK2/cyclin E (Homo sapiens)    6.85
 7   CCNc1nc(C)c(-c2ccnc(Nc3ccc(OC)nc3)n2)s1  CDK2/cyclin E (Homo sapiens)    7.30
 8   COc1ccc(Nc2nccc(-c3sc(N(C)C)nc3C)n2)cn1  CDK2/cyclin E (Homo sapiens)    6.92
 9  CCn1c(C)c(-c2ccnc(Nc3ccc(OC)nc3)n2)sc1=O  CDK2/cyclin E (Homo sapiens)    6.96
10         Cc1nc(C)c(-c2ccnc(Nc3cccnc3)n2)s1  CDK2/cyclin E (Homo sapiens)    6.96
11  COCCNc1nc(C)c(-c2ccnc(Nc3ccc(OC)nc3)n2)s1  CDK2/cyclin E (Homo sapiens)    6.60
12       COc1ccc(Nc2nccc(-c3sc(N)nc3C)n2)cn1  CDK2/cyclin E (Homo sapiens)    7.15

###

SYSTEM_TESTED: CDK4/cyclin D1 (Homo sapiens)
Sequence (P11802 whole entry): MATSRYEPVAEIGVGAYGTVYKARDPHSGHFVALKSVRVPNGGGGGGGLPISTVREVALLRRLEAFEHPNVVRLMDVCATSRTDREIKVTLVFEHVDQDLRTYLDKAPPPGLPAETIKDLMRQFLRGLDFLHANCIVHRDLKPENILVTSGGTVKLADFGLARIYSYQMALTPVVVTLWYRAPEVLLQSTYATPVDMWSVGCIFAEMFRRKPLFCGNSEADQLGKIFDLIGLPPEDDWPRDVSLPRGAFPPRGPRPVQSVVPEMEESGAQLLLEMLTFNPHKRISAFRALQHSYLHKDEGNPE
Sequence (P24385 whole entry partner): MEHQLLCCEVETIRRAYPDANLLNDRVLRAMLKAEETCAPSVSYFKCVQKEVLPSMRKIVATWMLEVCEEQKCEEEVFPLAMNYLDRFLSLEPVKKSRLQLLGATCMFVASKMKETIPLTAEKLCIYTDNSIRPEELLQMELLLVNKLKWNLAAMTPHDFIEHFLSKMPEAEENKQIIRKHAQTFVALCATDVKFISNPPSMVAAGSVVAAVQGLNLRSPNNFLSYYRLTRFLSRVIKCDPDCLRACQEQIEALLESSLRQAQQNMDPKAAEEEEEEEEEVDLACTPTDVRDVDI
EXPERIMENT: Kinase assay, incorporation of radioactive phosphate from ATP
CONDITION_INFO: 100 μM ATP, 30° C.; read-out: Kinase inhibition Ki CDK4/cyclin D1
pKi: −log10 of the molar value.
ASSAY_READOUT: pKi

In [3]: df
Out[3]:
                                    compound  assay_readout  number
 0  CCNc1nc(C)c(-c2ccnc(Nc3ccc(OC)nc3)n2)s1 [Compound 12]            pKi    7.10
 1  Cc1nc(C)c(-c2ccnc(Nc3ccc[n+](C)c3)n2)s1 [Compound 2]            pKi    5.39
 2  CNc1nc(C)c(-c2ccnc(Nc3ccc(OC)nc3)n2)s1 [Compound 8]            pKi    7.40
 3  Cc1nc(C)c(-c2ccnc(Nc3ccc(Cl)nc3)n2)s1 [Compound 3]            pKi    6.18
 4  COc1ccc(Nc2nccc(-c3sc(C)nc3C)n2)cn1 [Compound 6]            pKi    6.34
 5  Cc1nc(N)sc1-c1ccnc(Nc2ccc(Cl)nc2)n1 [Compound 7]            pKi    7.15
 6  CNc1nc(C)c(-c2ccnc(Nc3ccc(Cl)nc3)n2)s1 [Compound 9]            pKi    6.01
 7  CNc1nc(C)c(-c2ccnc(Nc3ccc(N4CCN(C)CC4)nc3)n2)s1 [Compound 15]            pKi    7.10
 8  COc1ccc(Nc2nccc(-c3sc(N)nc3C)n2)cn1 [Compound 5]            pKi    7.22
 9  Cc1nc(C)c(-c2ccnc(Nc3ccc(N4CCCC4)nc3)n2)s1 [Compound 14]            pKi    5.59
10  COc1ccc(Nc2nccc(-c3sc(N(C)C)nc3C)n2)cn1 [Compound 10]            pKi    7.15
11  Cc1nc(C)c(-c2ccnc(Nc3cccnc3)n2)s1 [Compound 1]            pKi    6.47
12  CCn1c(C)c(-c2ccnc(Nc3ccc(OC)nc3)n2)sc1=O [Compound 11]            pKi    5.92
13  COCCNc1nc(C)c(-c2ccnc(Nc3ccc(OC)nc3)n2)s1 [Compound 13]            pKi    6.60

###

Assay system GSK3β (Homo sapiens, UniProt P49841); read-out recorded as Ki.
ASSAY_READOUT: Ki (nM)

In [3]: df
Out[3]:
                              entry_smiles                         system_tested  number
0  COc1ccc(Nc2nccc(-c3sc(N(C)C)nc3C)n2)cn1  GSK3β (Homo sapiens, UniProt P49841)     110
1   CNc1nc(C)c(-c2ccnc(Nc3ccc(OC)nc3)n2)s1  GSK3β (Homo sapiens, UniProt P49841)      50
2      COc1ccc(Nc2nccc(-c3sc(N)nc3C)n2)cn1  GSK3β (Homo sapiens, UniProt P49841)     350
3      Cc1nc(N)sc1-c1ccnc(Nc2ccc(Cl)nc2)n1  GSK3β (Homo sapiens, UniProt P49841)     160

The reported numbers originate from patent US20060241297A1.
